Here we gather IC50 data for ROCK2 (Homo sapiens) reported by several publications.

Before answering, review these 2 worked examples.
[[record]]
molecule = "CCc1cc(N2CCN(Cc3cccc(OCC4CC4)c3)C2=O)ccc1-c1cn[nH]c1"
val = "200 to 2000 nM"

[[record]]
molecule = "O=C1N(Cc2cccc(C(F)(F)F)c2)CCN1c1ccc(-c2cn[nH]c2)cn1"
val = "200 to 2000 nM"


[Q] GET /values?readout=IC50&item= CCNC(=O)C(c1cccc(OC)c1)N1CCN(c2ccc(-c3cn[nH]c3)cc2)C1=O (single isomer, unassigned)
[A] 2.1 to 20 nM

[Q] GET /values?readout=IC50&item= CC(O)c1nn(-c2ccc(-c3cn[nH]c3)cc2)c(=O)n1Cc1ccccc1 (single isomer, unassigned)
[A] 5 to 50 nM

[Q] GET /values?readout=IC50&item= Cn1c(C(=O)N2CC(=CC#N)C2)cc2ccc(-c3nccc(Nc4ccc(-c5cn[nH]c5)cc4)n3)cc21
[A] 110 nM

[Q] GET /values?readout=IC50&item= COc1cc(-c2cn[nH]c2)ccc1-n1cnn(Cc2cc(F)ccc2F)c1=O
[A] 50 to 250 nM

[Q] GET /values?readout=IC50&item= COc1cc(N2CCC3(CCN(C(=O)c4ncc(OC)c5ccccc45)CC3)C2=O)ccc1-c1cn[nH]c1
[A] 127 nM

----------
Here we gather pIC50 data for ROCK2 (Homo sapiens, UniProt O75116) reported by several publications.
pIC50: −log10 of the molar value.

[[record]]
molecule = "[H][C@]1(c2n[nH]c(=O)c3ccccc32)C[C@]2(C[C@@H](NC(=O)c3cnc4cc(C(C)O)ccn34)C2)C1 (stereo partly shown)"
measuredon = "ROCK2 (Homo sapiens, UniProt O75116)"
val = "7.82 to 8.29"

[[record]]
molecule = "COc1cc(F)cc(CNC(=O)N2CCc3cc(-c4cn[nH]c4)c(F)cc32)c1"
measuredon = "ROCK2 (Homo sapiens, UniProt O75116)"
val = "≥ 7.30"

[[record]]
molecule = "COc1cccc(C(CO)N2CCN(c3ccc(-c4cn[nH]c4)cn3)C2=O)c1 (single isomer, unassigned)"
measuredon = "ROCK2 (Homo sapiens, UniProt O75116)"
val = "6.70 to 7.70"

[[record]]
molecule = "O=C1CN(c2ccc(-c3cn[nH]c3)cc2)C(=O)N1Cc1c(F)cccc1F"
measuredon = "ROCK2 (Homo sapiens, UniProt O75116)"
val = "5.70 to 6.70"

[[record]]
molecule = "O=C1CC(c2ccccc2)CN1c1ccc(-c2n[nH]c(=O)c3ccccc23)cc1 (stereo not shown)"
measuredon = "ROCK2 (Homo sapiens, UniProt O75116)"
val = "6.30 to 7.00"

[[record]]
molecule = "CCOc1cccc(C(C)n2ccn(-c3ccc(-c4cn[nH]c4)c(CC)n3)c2=O)c1 (single isomer, unassigned)"
measuredon = "ROCK2 (Homo sapiens, UniProt O75116)"
val = "5.70 to 6.70"


[Q] What reported pIC50 corresponds to COc1cc(C(=O)NCc2cccc(C(=O)NC3CCN(C)CC3)c2)ccc1-c1cn[nH]c1 on ROCK2 (Homo sapiens, UniProt O75116)?
[A] 9.72

[Q] What reported pIC50 corresponds to CN1CCC(N2CCC(NC(=O)c3cc4ccc(-c5nccc(Nc6ccc7[nH]ncc7c6)n5)cc4[nH]3)CC2)CC1 on ROCK2 (Homo sapiens, UniProt O75116)?
[A] 6.95

[Q] What reported pIC50 corresponds to O=C1N(c2ccc(-c3cn[nH]c3)cc2)CC2(CCNCC2)N1Cc1cccc(O)c1 on ROCK2 (Homo sapiens, UniProt O75116)?
[A] > 8.52

[Q] What reported pIC50 corresponds to COc1cc(N2CCC3(CCN(C(=O)c4ccc(CS(C)(=O)=O)cc4)CC3)C2=O)ccc1-c1cn[nH]c1 on ROCK2 (Homo sapiens, UniProt O75116)?
[A] 7.89

----------
Here we gather IC50 data for ROCK2 (Homo sapiens) reported by several publications.

Before answering, review these 3 worked examples.
[[record]]
compound = "COc1cc(-n2ncn(Cc3c(F)cccc3F)c2=O)ccc1-c1cn[nH]c1"
reportedproperty = "IC50"
val = "5 to 50 nM"

[[record]]
compound = "CCc1nc(N2CC3(CCN(CCC(F)(F)F)CC3)N(Cc3cccc(OC)c3)C2=O)ccc1-c1cn[nH]c1"
reportedproperty = "IC50"
val = "3 to 30 nM"

[[record]]
compound = "COc1cc(F)cc(CNC(=O)N2CCc3c2cc(F)c(-c2cn[nH]c2)c3F)c1"
reportedproperty = "IC50"
val = "≤ 50 nM"


[Q] GET /values?readout=IC50&item= [H][C@]1(c2n[nH]c(=O)c3ccccc32)C[C@]2(C[C@@H](NC(=O)c3cc4ccc(F)cc4[nH]3)C2)C1 (stereo partly drawn)
[A] 5.1 to 15 nM

[Q] GET /values?readout=IC50&item= Cc1cccc2c1CC1(CCN(c3ccc(-c4cn[nH]c4)cc3)C1=O)N2 (stereo not drawn)
[A] 3 to 30 nM

[Q] GET /values?readout=IC50&item= O=C1C(Nc2ccc3ncsc3c2)CCN1c1ccc2c(n1)OCc1n[nH]cc1-2 (racemic)
[A] 500 to 2000 nM

[Q] GET /values?readout=IC50&item= COc1cccc(CN2CCN(c3ccc(-c4cn[nH]c4)c(F)c3)C2=O)c1
[A] 2.1 to 20 nM

[Q] GET /values?readout=IC50&item= COc1c(F)cccc1Cn1ccn(-c2ccc(-c3cn[nH]c3)cc2)c1=O
[A] 20.1 to 200 nM

[Q] GET /values?readout=IC50&item= O=C(NC1CC2(C1)CC(c1n[nH]c(=O)c3ccccc13)C2)c1cnn2cc(N3CCC(F)(F)C3)ccc12 (stereo not drawn)
[A] 0.2 to 2 nM

----------
Here we gather IC50 data for ROCK2 (Homo sapiens) reported by several publications.

Before answering, review these 3 worked examples.
[[record]]
compound = "COc1cc(F)cc(CNC(=O)N2CCOc3cc(-c4cn[nH]c4)ccc32)c1"
val = "≤ 50 nM"

[[record]]
compound = "[H][C@]1(c2n[nH]c(=O)c3ccccc32)C[C@]2(C[C@@H](NC(=O)c3cccc(-c4cc[nH]n4)c3)C2)C1 (stereo partly shown)"
val = "5.1 to 15 nM"

[[record]]
compound = "O=C1C(Nc2cnn(-c3ccccc3)c2)CCN1c1ccc(-c2n[nH]c(=O)c3ccccc23)cc1 (stereo not shown)"
val = "10 to 100 nM"


Lab note: next compound to report on.
[Q] GET /values?readout=IC50&item= COc1cc(CN2C(=O)N(c3ccc(-c4cn[nH]c4)cc3)CC2(C)C)ccc1F
[A] 2.1 to 20 nM

----------
Here we gather IC50 data for ROCK2 (Homo sapiens, UniProt O75116) reported by several publications.

Before answering, review these 2 worked examples.
[[record]]
molecule = "COc1nc(N2CCN(C(C)c3cccc(OCC4CC4)c3)C2=O)ccc1-c1cn[nH]c1 (single isomer, unassigned)"
val = "2.1 to 20 nM"

[[record]]
molecule = "CCOC(=O)C1CN(Cc2cccc(OC)c2)C(=O)N1c1ccc(-c2cn[nH]c2)cc1 (stereo not shown)"
val = "2.1 to 20 nM"


[Q] GET /values?readout=IC50&item= CC(=O)N1CCC2(CC1)CN(c1ccc(-c3cn[nH]c3)cc1)C(=O)N2CC1CCCCC1
[A] 30 to 250 nM

[Q] GET /values?readout=IC50&item= O=c1n(Cc2cc(F)ccc2F)nnn1-c1ccc(-c2cn[nH]c2)cc1
[A] 50 to 250 nM

----------
Here we gather IC50 data for ROCK2 (Homo sapiens) reported by several publications.

[[record]]
compound = "Cc1cccc2c(C(=O)N[C@H]3CC4(C3)C[C@H](c3n[nH]c(=O)c5ccccc53)C4)cnn12 (stereo partly shown)"
val = "2.01 to 5 nM"

[[record]]
compound = "COc1ncc(C(=O)Nc2cccc(-n3nc(Nc4ccc5[nH]ncc5c4)c4ccccc43)c2)cn1"
val = "300 to 3000 nM"

[[record]]
compound = "O=C1CN(Cc2ccccc2F)C(=O)N1c1ccc(-c2cn[nH]c2)cc1"
val = "200 to 2000 nM"


[Q] What reported IC50 corresponds to COc1cc(N2CC(=O)N(Cc3c(F)cccc3F)C2=O)ccc1-c1cn[nH]c1 on ROCK2 (Homo sapiens)?
[A] 20.1 to 200 nM

[Q] What reported IC50 corresponds to COc1cc(F)cc(CNC(=O)c2ncn3cc(-c4cn[nH]c4)ccc23)c1 on ROCK2 (Homo sapiens)?
[A] ≤ 50 nM

[Q] What reported IC50 corresponds to O=C1C(Nc2ccc3c(c2)OCCCO3)CCN1c1ccc(-c2n[nH]c(=O)c3ccccc23)cc1 (single isomer, unassigned) on ROCK2 (Homo sapiens)?
[A] 10 to 100 nM
